System: HL60 (leukemia)
Assay: MTT cell viability assay, HL-60
Assay type: cell-based
Conditions: Homo sapiens, HL-60 (leukemia), 48 h treatment
Please go through the items and note down their IC50.
Provide only the numeric value, understood in µM.

Q. Given the entry "Cc1cc(=O)c2c(O)cc(O)c([C@H]3CCN(C)C[C@H]3O)c2o1" , report its measured IC50.
A. 10

Q. One more molecule: Cc1cc(=O)c2c(O)c(C3CCN(C)CC3O)c(O)cc2o1 (centres unmarked)
A. 10

----------
Tested on: NCIH322 (lung)
Assay: MTT cell viability assay, NCIH322
Assay type: cell-based
Settings: NCI-H322, 48 h treatment
quantity_measured: IC50

Q. Given the entry "Cc1cc(=O)c2c(O)cc(O)c([C@H]3CCN(C)C[C@H]3O)c2o1" , report its measured IC50.
A. > 10 µM

Q. One more compound: Cc1cc(=O)c2c(O)c(C3CCN(C)CC3O)c(O)cc2o1 (centres unmarked)
A. > 10 µM
